- Test Details: Solubility assessment of Compound I Form A in solvents and solvent mixtures (visual observation)
- Format: physicochemical
- Experimental Parameters: (1:1) 2-propanol:acetone, 60 °C, organic solvent or mixture, thermodynamic from solid, (1:1) 2-Propanol:Acetone; hot plate set to 60° C.; reported values <= actual solubility, approximate; read-out: Solubility

{"Compound": "C/C=C1\\NC(=O)[C@H]2CSSCC/C=C/[C@H](CC(=O)N[C@H](C(C)C)C(=O)N2)OC(=O)[C@H](C(C)C)NC1=O [Form A, romidepsin]", "solubility": "11.5 mg/mL"}

---

- Test Details: Solubility assessment of Compound I Form A in solvents and solvent mixtures (visual observation)
- Type: physicochemical
- Experimental Parameters: (0.5:0.1) acetone:DCM, organic solvent or mixture, thermodynamic from solid, (0.5:0.1) Acetone:DCM; ambient temperature; reported values <= actual solubility, approximate; read-out: Solubility
Assay Metric: solubility

{"Compound": "C/C=C1\\NC(=O)[C@H]2CSSCC/C=C/[C@H](CC(=O)N[C@H](C(C)C)C(=O)N2)OC(=O)[C@H](C(C)C)NC1=O [Form A, romidepsin]", "Reported Measurement": "38 mg/mL"}

Hey, just so you know, these numbers are from patent US9518094B2.
